Answer each item with its documented Km.
substrate: O=CC=O; test: purified protein; format: biochemical, Arabidopsis thaliana; conditions: true substrate is the hemithioacetal of GO and GSH (preformed 30 min; HTA concentration calculated with Kdiss 3.0 mM), 1.7 mM GSH, 0.5 mM Mn2+, 100 mM MOPS pH 7.0, 25 °C
# answer = value followed by unit

Use these answered entries as a reference point.
{"protein": "GLXI;2 (Col-0 GLXI;2) (Arabidopsis thaliana; F278I) (protein, monomer; two domains, active site 2 (His89, Glu137, Gln150, Glu201)) MAEASDLLEWPKKDNRRFLHVVYRVGDLDRTIEFYTEVFGMKLLRKRDIPEEKYSNAFLGFGPETSNFVVELTYNYGVSSYDIGTGFGHFAISTQDVSKLVENVRAKGGNVTREPGPVKGGGSVIAFVKDPDGYTFELIQRGPTPEPFCQVMLRVGDLDRAIKFYEKALGMRLLRKIERPEYKYTIGMMGYAEEYESIVLELTYNYDVTEYTKGNAYAQIAIGTDDVYKSGEVIKIVNQELGGKITREAGPLPGLGTKIVSFLDPDGWKTVLVDNKDILKELE", "test_result": "403 ± 12 µM"}
{"protein": "GLXI;2 (Col-0 GLXI;2) (Arabidopsis thaliana; F278I/K229N) (protein, monomer; two domains, active site 2 (His89, Glu137, Gln150, Glu201)) MAEASDLLEWPKKDNRRFLHVVYRVGDLDRTIEFYTEVFGMKLLRKRDIPEEKYSNAFLGFGPETSNFVVELTYNYGVSSYDIGTGFGHFAISTQDVSKLVENVRAKGGNVTREPGPVKGGGSVIAFVKDPDGYTFELIQRGPTPEPFCQVMLRVGDLDRAIKFYEKALGMRLLRKIERPEYKYTIGMMGYAEEYESIVLELTYNYDVTEYTKGNAYAQIAIGTDDVYNSGEVIKIVNQELGGKITREAGPLPGLGTKIVSFLDPDGWKTVLVDNKDILKELE", "test_result": "407 ± 15 µM"}
{"protein": "GLXI;2 (Col-0 GLXI;2) (Arabidopsis thaliana; K229N) (protein, monomer; two domains, active site 2 (His89, Glu137, Gln150, Glu201)) MAEASDLLEWPKKDNRRFLHVVYRVGDLDRTIEFYTEVFGMKLLRKRDIPEEKYSNAFLGFGPETSNFVVELTYNYGVSSYDIGTGFGHFAISTQDVSKLVENVRAKGGNVTREPGPVKGGGSVIAFVKDPDGYTFELIQRGPTPEPFCQVMLRVGDLDRAIKFYEKALGMRLLRKIERPEYKYTIGMMGYAEEYESIVLELTYNYDVTEYTKGNAYAQIAIGTDDVYNSGEVIKIVNQELGGKITREAGPLPGLGTKIVSFLDPDGWKTVLVDNKDFLKELE", "test_result": "415 ± 17 µM"}

Prompt: # input protein: GLXI;2 (Col-0 GLXI;2) (Arabidopsis thaliana) (protein, monomer; two domains, active site 2 (His89, Glu137, Gln150, Glu201)) MAEASDLLEWPKKDNRRFLHVVYRVGDLDRTIEFYTEVFGMKLLRKRDIPEEKYSNAFLGFGPETSNFVVELTYNYGVSSYDIGTGFGHFAISTQDVSKLVENVRAKGGNVTREPGPVKGGGSVIAFVKDPDGYTFELIQRGPTPEPFCQVMLRVGDLDRAIKFYEKALGMRLLRKIERPEYKYTIGMMGYAEEYESIVLELTYNYDVTEYTKGNAYAQIAIGTDDVYKSGEVIKIVNQELGGKITREAGPLPGLGTKIVSFLDPDGWKTVLVDNKDFLKELE ; wanted: its Km
Completion: 411 ± 18 µM
